- System: T lymphocytes (normal mouse spleen cells) stimulated with ConA
- Experiment: Mouse Spleen Cell ConA Blastogenesis Assay
- Format: cell-based, mouse (C57Bl/6)
- Measurement context: Mus musculus, T-lymphocyte, ConA 1 ug/ml, 0.01 ug/ml; read-out: % Change from Control (Table II)
- Experimental: It is well known that several plant lectins, when cultured in vitro with lymphocytes, stimulate cellular activation and proliferation. Concanavolin, (ConA) selectively stimulates the blastogenic response of T lymphocytes. […] Cultures were incubated for 3 days at 37° C. in a humidified atmosphere of 5% of CO2 in air. […] The amount of ^3 H-thymidine incorporated by the cultures, as a measure of cell proliferation, was measured in a liquid scintillation counter. […]
Result type: inhibition at 0.01 µg/mL (%)
Write it as a number; the unit % goes unstated.

Use these answered entries as a reference point.
Molecule | Observed measurement
CCCCC/C=C\COC[C@H]1O[C@@]2(OC)COC(C)(C)O[C@H]2[C@@H]1OC/C=C\CCCCC | 8
CCCCCC#CCOC[C@H]1O[C@@]2(OC)COC(C)(C)O[C@H]2[C@@H]1OCC#CCCCCC | 9
CCCCC/C=C\COC[C@H]1O[C@](COC/C=C\CCCCC)(OC)[C@@H](O)[C@@H]1O | 3
CCCCCCCC(=O)OC[C@H]1O[C@@]2(OC)COC(C)(C)O[C@H]2[C@@H]1OC(=O)CCCCCCC | 60
CCCCCCCO[C@@H]1[C@@H](CO)O[C@@]2(OC)COC(C)(C)O[C@@H]12 | -11
Cc1cn([C@H]2C[C@H](N=[N+]=[N-])[C@@H](CO)O2)c(=O)[nH]c1=O [AZT, reference compound] | 7
CCCCCCCC(=O)O[C@@H]1[C@@H](CO)O[C@@]2(OC)COC(C)(C)O[C@@H]12 | -12
CCCCC/C=C/COC[C@H]1O[C@@]2(OC)COC(C)(C)O[C@H]2[C@@H]1OC/C=C/CCCCC | 2

# molecule CCCCCCCOC[C@H]1O[C@](COCC)(OC)[C@@H](OCC)[C@@H]1O ; its inhibition at 0.01 µg/mL = 55

// inhibition at 0.01 µg/mL lookup, molecule = CCCCCCCC(=O)OC[C@H]1O[C@@]2(OC)COC(C)(C)O[C@H]2[C@@H]1O , result: -11
